# SYSTEM TESTED: T1, Bbc1, P47068
# T1 sequence (P47068 1-78, looked up): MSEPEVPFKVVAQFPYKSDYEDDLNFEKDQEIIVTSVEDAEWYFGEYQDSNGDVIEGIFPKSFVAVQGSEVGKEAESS
# TEST METHOD NOTES: SPOT array
# RUN PARAMETERS: median of control spots 796
OBSERVED PROPERTY: SPOT intensity

Worked cases, answers included:
RRTRLRPPTPLSQLL	348
KTKQQKPAIPQKKSF	1
KWVRRPKLMTPLTFS	38
QPWTDQFEKLEKEVS	0
SHRLWLYAAPKRPKT	34

P: EQEEIAPSLPSRNSI
Q: DGNEEKPLLPTRPNK
(Q) // select label with min value of measured SPOT intensity from [ P , Q ] Your answer should be the label of the entry you select.
(A) P
